Provenance of the data: paper PMC3190643

# Protocol description: in vivo
# Conditions: male, C57Bl/6J, mouse, iv, t½ α, IV dose of 3, mice
Quantity: half-life (min)
Respond with the bare value in min.

Ask: Query: half-life; subject: CC(=O)Nc1ccc(Oc2ccc(S(=O)(=O)CC3CS3)cc2)cc1 (stereo not shown)
Reply: 5.1

----------
# Protocol description: Metabolic stability in rat liver microsomes
# Assay type: in vitro ADME
# Conditions: pH 7.4
Quantity: CLint scaled at 100 μM (mL/min/kg)
# value in mL/min/kg; strip the unit string

Ask: Value lookup for CLint scaled at 100 μM; key = N=C(N)NCCC[C@H](N)C(=O)Nc1ccc(Oc2ccc(S(=O)(=O)CC3CS3)cc2)cc1 (some centres unmarked)
Reply: 23.7

Ask: So what does the record say about CLint scaled at 100 μM for Nc1ccc(Oc2ccc(S(=O)(=O)CC3CS3)cc2)cc1 (centres unmarked) ?
Reply: 60
